Organism: Rattus norvegicus
assayInfo: DrugMatrix - Regimen: Daily Repeat
Format: toxicity, organism-based, Sprague-Dawley
Parameters: regimen Daily Repeat, gender Male, age 6-8 weeks
conditionsUsed: in vivo, po, 1500 mg/kg, 120 h, tissue Plasma, route oral GAVAGE, dose level High, time 5 day, vehicle .5 % CMC
# key: entry, value: URIC ACID
recordedEndpoint: URIC ACID (mg/dL)

[[record]]
compound = "COC(=O)Nc1nc2ccc([S+]([O-])c3ccccc3)cc2[nH]1 (stereo not given)"
reportedvalue = 1.7

[[record]]
compound = "CC(C)Oc1ccc2c(=O)c(-c3ccccc3)coc2c1"
reportedvalue = 1.9

[[record]]
compound = "CN(C)[C@@H]1C(O)=C(C(N)=O)C(=O)[C@@]2(O)C(O)=C3C(=O)c4c(O)ccc(Cl)c4[C@@](C)(O)[C@H]3C[C@@H]12"
reportedvalue = 1.57

[[record]]
compound = "O=c1cnn([C@@H]2O[C@H](CO)[C@@H](O)[C@H]2O)c(=O)[nH]1"
reportedvalue = 1.5

[[record]]
compound = "CC(C)=CCC/C(C)=C/CO"
reportedvalue = 2


---

Species: Rattus norvegicus
assayInfo: DrugMatrix - Regimen: Daily Repeat
Type: toxicity, organism-based, Sprague-Dawley
Design: regimen Daily Repeat, gender Male, age 6-8 weeks
conditionsUsed: in vivo, po, 0 mg/kg, 72 h, tissue Plasma, route oral GAVAGE, dose level Control, time 3 day, vehicle 100 % WATER
recordedEndpoint: LIPASE

[[record]]
compound = "C[C@]12C=CC(=O)C=C1CC[C@@H]1[C@@H]2[C@@H](O)C[C@@]2(C)[C@H]1CC[C@]2(O)C(=O)CO"
reportedvalue = "9.67 u/L"

[[record]]
compound = "O.O.O.O.O.O.[Cl-].[Cl-].[Sr+2] [STRONTIUM CHLORIDE HEXAHYDRATE]"
reportedvalue = "8.83 u/L"

[[record]]
compound = "NNc1nncc2ccccc12 [HYDRALAZINE]"
reportedvalue = "11.17 u/L"


---

Organism: Rattus norvegicus
assayInfo: DrugMatrix - Regimen: Daily Repeat
Assay type: toxicity, organism-based, Sprague-Dawley
Set-up: regimen Daily Repeat, gender Male, age 6-8 weeks
conditionsUsed: in vivo, po, 2000 mg/kg, 72 h, tissue Blood, route oral GAVAGE, dose level High, time 3 day, vehicle .5 % CMC
Consider the following compounds and their measured PLATELET COUNT readings.
recordedEndpoint: PLATELET COUNT (x10E3/uL)

[[record]]
compound = "O=C1Nc2ccc(Cl)cc2C(c2ccccc2Cl)=NC1O (stereo unspecified)"
reportedvalue = 1214.33

[[record]]
compound = "NC1CCN(c2nc3c(cc2F)c(=O)c(C(=O)O)cn3-c2ccc(F)cc2F)C1 (stereo unspecified)"
reportedvalue = 1313.5

[[record]]
compound = "COc1cc2nc(N3CCN(C(=O)c4ccco4)CC3)nc(N)c2cc1OC"
reportedvalue = 1248.33

[[record]]
compound = "CC1(C)S[C@@H]2[C@H](NC(=O)[C@H](N)c3ccccc3)C(=O)N2[C@H]1C(=O)O"
reportedvalue = 1229.33

[[record]]
compound = "CN/C(=N/CCSCc1nc[nH]c1C)NC#N"
reportedvalue = 1342.33

[[record]]
compound = "CN(C/C=C/C#CC(C)(C)C)Cc1cccc2ccccc12"
reportedvalue = 1235.33


---

Known ALBUMIN of a selection of molecules
Organism: Rattus norvegicus
assayInfo: DrugMatrix - Regimen: Daily Repeat
Assay type: toxicity, organism-based, Sprague-Dawley
Design: regimen Daily Repeat, gender Male, age 6-8 weeks
conditionsUsed: in vivo, sc, 0 mg/kg, 120 h, tissue Plasma, route subcutaneous, dose level Control, time 5 day, […]
recordedEndpoint: ALBUMIN (G/DL)

[[record]]
molecule = "CCC(=O)O[C@]1(C(=O)CCl)[C@@H](C)C[C@H]2[C@@H]3CCC4=CC(=O)C=C[C@]4(C)[C@@]3(F)[C@@H](O)C[C@@]21C [CLOBETASOL PROPIONATE]"
unitstring = "G/DL"
reportedvalue = 4.08

[[record]]
molecule = "CCN(CC)CCOCCC1=CCC2CC1C2(C)C (stereo not given) [MYRTECAINE]"
unitstring = "G/DL"
reportedvalue = 4.1

[[record]]
molecule = "Oc1c(Cl)cc(Cl)c(Cl)c1Cc1c(O)c(Cl)cc(Cl)c1Cl [HEXACHLOROPHENE]"
unitstring = "G/DL"
reportedvalue = 4.27

[[record]]
molecule = "CC(C)(C)CC(C)(C)c1ccc(OCCOCC[N+](C)(C)Cc2ccccc2)cc1.[Cl-] [BENZETHONIUM CHLORIDE]"
unitstring = "G/DL"
reportedvalue = 4.27

[[record]]
molecule = "O=C(Nc1ccc(Br)cc1)c1cc(Br)cc(Br)c1O [TRIBROMSALAN]"
unitstring = "G/DL"
reportedvalue = 4.08


---

Species: Rattus norvegicus
assayInfo: DrugMatrix - Regimen: Daily Repeat
Assay type: toxicity, organism-based, Sprague-Dawley
Design: regimen Daily Repeat, gender Male, age 6-8 weeks
conditionsUsed: in vivo, sc, 0 mg/kg, 120 h, tissue Plasma, route subcutaneous, dose level Control, time 5 day, […]
recordedEndpoint: LACTATE DEHYDROGENASE (u/L)

[[record]]
compound = "CC(C)(C)CC(C)(C)c1ccc(OCCOCC[N+](C)(C)Cc2ccccc2)cc1.[Cl-] [BENZETHONIUM CHLORIDE]"
recordedendpoint = "LACTATE DEHYDROGENASE"
reportedvalue = 124.5

[[record]]
compound = "CCC(=O)O[C@]1(C(=O)CCl)[C@@H](C)C[C@H]2[C@@H]3CCC4=CC(=O)C=C[C@]4(C)[C@@]3(F)[C@@H](O)C[C@@]21C [CLOBETASOL PROPIONATE]"
recordedendpoint = "LACTATE DEHYDROGENASE"
reportedvalue = 189

[[record]]
compound = "O=C(Nc1ccc(Br)cc1)c1cc(Br)cc(Br)c1O"
recordedendpoint = "LACTATE DEHYDROGENASE"
reportedvalue = 189

[[record]]
compound = "CCN(CC)CCOCCC1=CCC2CC1C2(C)C (stereo not given)"
recordedendpoint = "LACTATE DEHYDROGENASE"
reportedvalue = 166.83

[[record]]
compound = "Oc1c(Cl)cc(Cl)c(Cl)c1Cc1c(O)c(Cl)cc(Cl)c1Cl"
recordedendpoint = "LACTATE DEHYDROGENASE"
reportedvalue = 124.5


---

Organism: Rattus norvegicus
assayInfo: DrugMatrix - Regimen: Daily Repeat
Assay type: toxicity, organism-based, Sprague-Dawley
Set-up: regimen Daily Repeat, gender Male, age 6-8 weeks
conditionsUsed: in vivo, sc, 0 mg/kg, 72 h, tissue Plasma, route subcutaneous, dose level Control, time 3 day, […]
Documented GLUCOSE across a set of compounds
recordedEndpoint: GLUCOSE (mg/dL)

[[record]]
compound = "Oc1c(Cl)cc(Cl)c(Cl)c1Cc1c(O)c(Cl)cc(Cl)c1Cl [HEXACHLOROPHENE]"
recordedendpoint = "GLUCOSE"
reportedvalue = 180.67

[[record]]
compound = "CCC(=O)O[C@]1(C(=O)CCl)[C@@H](C)C[C@H]2[C@@H]3CCC4=CC(=O)C=C[C@]4(C)[C@@]3(F)[C@@H](O)C[C@@]21C [CLOBETASOL PROPIONATE]"
recordedendpoint = "GLUCOSE"
reportedvalue = 192.5

[[record]]
compound = "O=C(Nc1ccc(Br)cc1)c1cc(Br)cc(Br)c1O [TRIBROMSALAN]"
recordedendpoint = "GLUCOSE"
reportedvalue = 192.5

[[record]]
compound = "CCN(CC)CCOCCC1=CCC2CC1C2(C)C (stereo not given) [MYRTECAINE]"
recordedendpoint = "GLUCOSE"
reportedvalue = 138.5

[[record]]
compound = "CC(C)(C)CC(C)(C)c1ccc(OCCOCC[N+](C)(C)Cc2ccccc2)cc1.[Cl-] [BENZETHONIUM CHLORIDE]"
recordedendpoint = "GLUCOSE"
reportedvalue = 180.67


---

Species on record: Rattus norvegicus
assayInfo: DrugMatrix - Regimen: Daily Repeat
Format: toxicity, organism-based, Sprague-Dawley
Parameters: regimen Daily Repeat, gender Male, age 6-8 weeks
conditionsUsed: in vivo, po, 0 mg/kg, 120 h, tissue Plasma, route oral GAVAGE, dose level Control, time 5 day, vehicle 100 % WATER
recordedEndpoint: TOTAL PROTEIN

[[record]]
compound = "O.O.O.O.O.O.[Cl-].[Cl-].[Sr+2] [STRONTIUM CHLORIDE HEXAHYDRATE]"
reportedvalue = "6.12 G/DL"

[[record]]
compound = "NNc1nncc2ccccc12 [HYDRALAZINE]"
reportedvalue = "6.12 G/DL"

[[record]]
compound = "CN(C)CC[C@@H](c1ccc(Cl)cc1)c1ccccn1"
reportedvalue = "6.07 G/DL"

[[record]]
compound = "CN(C)CCOC(c1ccccc1)c1ccccc1 [DIPHENHYDRAMINE]"
reportedvalue = "6.12 G/DL"

[[record]]
compound = "Oc1cccc(O)c1O"
reportedvalue = "6.83 G/DL"

